# assayed system: elastase from human neutrophil (Homo sapiens, UniProt P08246)
# Construct: using elastase from human neutrophil; from tissue; host or cells: human neutrophil
# Sequence (P08246 30-247 limits assumed): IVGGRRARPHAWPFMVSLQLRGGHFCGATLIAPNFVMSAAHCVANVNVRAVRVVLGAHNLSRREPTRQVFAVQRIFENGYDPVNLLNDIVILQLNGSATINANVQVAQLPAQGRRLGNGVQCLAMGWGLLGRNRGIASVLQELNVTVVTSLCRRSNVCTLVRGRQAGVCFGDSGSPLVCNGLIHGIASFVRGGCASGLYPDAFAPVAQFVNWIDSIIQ
# test protocol: Inhibitory effect on elastase (spectrophotometric method, substrate Suc-Ala-Pro-Ala-pNA)
# Type: biochemical
# experimental conditions: Y represents an oxygen atom; pH 8.0, 37° C., 30 minutes; read-out: Inhibitory Effect on Elastase, IC50
Rule for this label: 1.0 means IC50 is less than 5 µM; 0.0 means IC50 is at least 5 µM.

• Cc1cc(O)cc(OC(=O)c2ccc(NC(=N)N)cc2)c1 [Example 109] = 0.0
• CS(=O)(=O)Oc1cc(Cl)cc(OC(=O)c2ccc(NC(=N)N)cc2)c1 [Example 74] = 1.0
• N=C(N)Nc1ccc(C(=O)Oc2ccc(S(=O)(=O)N3CCCC3)cc2)cc1 [Example 98] = 0.0
• N=C(N)Nc1ccc(C(=O)Oc2cc(Cl)cc(OCc3ccccc3)c2)cc1 [Example 119] = 1.0
• N=C(N)Nc1ccc(C(=O)Oc2cc(Cl)cc(CO)c2)cc1 [Example 150] = 1.0
• CCS(=O)(=O)Nc1cc(Cl)cc(OC(=O)c2ccc(NC(=N)N)cc2)c1 [Example 106] = 0.0
• N=C(N)Nc1ccc(C(=O)Oc2c(F)cccc2F)cc1 [Example 31] = 1.0
• CS(=O)(=O)O.N=C(N)Nc1ccc(C(=O)Oc2cc(O)cc(Cl)c2)cc1 [Example 112, methanesulfonate] = 0.0
• N=C(N)Nc1ccc(C(=O)Oc2cc(Cl)cc(OC(=O)c3ccc(NC(=N)N)cc3)c2)cc1 [Example 68] = 1.0
• N=C(N)Nc1ccc(C(=O)Oc2cccc(Br)c2)cc1 [Example 43] = 0.0
• N=C(N)Nc1ccc(C(=O)Oc2cc(Cl)ccc2Cl)cc1 [Example 37] = 1.0
• Cc1cc(OC(=O)c2ccc(NC(=N)N)cc2)cc(OC(=O)c2ccc(NC(=N)N)cc2)c1 [Example 70] = 0.0
• COc1cc(OC(=O)c2ccc(NC(=N)N)cc2)cc(OC(=O)c2ccc(NC(=N)N)cc2)c1 [Example 69] = 1.0
• CC(=O)OCc1cc(Cl)cc(OC(=O)c2ccc(NC(=N)N)cc2)c1 [Example 71] = 1.0
• N=C(N)Nc1ccc(C(=O)Oc2cccc(OC(=O)c3ccccc3)c2)cc1 [Example 63] = 0.0
• CCN(CC)S(=O)(=O)c1ccc(OC(=O)c2ccc(NC(=N)N)cc2)cc1 [Example 93] = 0.0
• COc1cc(O)cc(OC(=O)c2ccc(NC(=N)N)cc2)c1 [Example 110] = 0.0
• CCN(CC)S(=O)(=O)c1ccc(NC(=O)c2cc(Cl)cc(OC(=O)c3ccc(NC(=N)N)cc3)c2)cc1 [Example 104] = 1.0
• COC(=O)c1cc(OC(=O)c2ccc(NC(=N)N)cc2)cc(OC(=O)c2ccc(NC(=N)N)cc2)c1 [Example 67] = 0.0
• COC(=O)Cc1cccc(OC(=O)c2ccc(NC(=N)N)cc2)c1Cl [Example 24] = 0.0
• N=C(N)Nc1ccc(C(=O)Oc2cc(Cl)cc(Cl)c2)cc1 [Example 1, methanesulfonate] = 1.0
• N=C(N)Nc1ccc(C(=O)Oc2ccccc2C(F)(F)F)cc1 [Example 45] = 0.0
